// data source = ChEMBL document CHEMBL3808355

assay comment: Selectivity index, ratio of CC50 for cytotoxicity against mock-infected human CEM-SS cells to EC50 for antiviral activity against HIV-1 RF
Assay type: toxicity, cell-based
test conditions: read-out: Ratio CC50/EC50
quantity: selectivity ratio

| compound | op | experimental value |
| --- | --- | --- |
| CO/N=C(\Cl)c1cc(/C(=C\CCCc2nnc(C)o2)c2cc(C)c3oc(=O)n(C)c3c2)cc(C)c1OC | = | 4 |
| CO/N=C(\F)c1cc(/C(=C\CCCc2nc(C)no2)c2cc(C)c3onc(OC)c3c2)cc(C)c1OC | = | 3 |
| CO/N=C(\Cl)c1cc(/C(=C\CCCc2nnc(C)o2)c2cccc(C#N)c2)cc(C)c1OC | = | 2 |
| CO/N=C(\Cl)CCC/C=C(/c1cccc(C#N)c1)c1cc(C)c(OC)c(C(=O)SC)c1 | = | 25 |
| CO/N=C(\F)c1cc(/C(=C\CCCc2nnc(C)o2)c2cc(C)c3oc(=O)n(C)c3c2)cc(C)c1OC | = | 12 |
| CO/N=C(\F)c1cc(/C(=C\CCCc2nc(C)no2)c2ccc(C#N)cc2)cc(C)c1OC | = | 7 |
| CO/N=C(\Cl)CCC/C=C(\c1cc(C)c(OC)c(C(=O)SC)c1)c1cc(C)c2onc(OC)c2c1 | = | 3 |
| CO/N=C(\Cl)CCC/C=C(/c1ccc(C#N)cc1)c1cc(C)c(OC)c(C(=O)SC)c1 | = | 52 |
| CO/N=C(\Cl)c1cc(/C(=C\CCCc2nc(C)no2)c2cc(C)c3oc(=O)n(C)c3c2)cc(C)c1OC | = | 5 |
| CO/N=C(\Cl)c1cc(/C(=C\CCCc2nnc(C)o2)c2cc(C)c3onc(OC)c3c2)cc(C)c1OC | = | 2 |
| CO/N=C(\Cl)c1cc(/C(=C\CCCc2nnc(C)o2)c2ccc(C#N)cc2)cc(C)c1OC | = | 7 |
| CO/N=C(\Cl)CCC/C=C(\c1cc(C)c(OC)c(C(=O)SC)c1)c1cc(C)c2oc(=O)n(C)c2c1 | = | 32 |
| Cc1cn([C@H]2C[C@H](N=[N+]=[N-])[C@@H](CO)O2)c(=O)[nH]c1=O [ZIDOVUDINE] | > | 50 |
| CO/N=C(\Cl)c1cc(/C(=C\CCCc2nc(C)no2)c2ccc(C#N)cc2)cc(C)c1OC | = | 7 |
| CO/N=C(\Cl)c1cc(/C(=C\CCCc2nc(C)no2)c2cc(C)c3onc(OC)c3c2)cc(C)c1OC | = | 7 |
| CO/N=C(\Cl)c1cc(/C(=C\CCCc2nc(C)no2)c2cccc(C#N)c2)cc(C)c1OC | = | 6 |
| CO/N=C(\F)c1cc(/C(=C\CCCc2nnc(C)o2)c2cc(C)c3onc(OC)c3c2)cc(C)c1OC | = | 7 |
